Values from the Human Domainome abundance scans (Beltran et al. 2025)

Exercise: for every item that follows, state its recorded abundance fitness.
B1: POU domain, class 3, transcription factor 3, residues 408 to 463; numbered along this chain, P20264 (parent)
chain: KKRTSIEVSVKGALESHFLKCPKPSAQEITNLADSLQLEKEVVRVWFCNRRQKEKR

Variants of: B1
procedure-summary: abundance fitness (aPCA) (normalised: wild type 0, dead -1); higher = more abundant; growth selection in yeast, the domain comes from the species named
measurement-context: Homo sapiens
Answers are plain numbers.

seq-text: KKRTSIEVGVKGALESHFLKCPKPSAQEITNLADSLQLEKEVVRVWFCNRRQKEKR [S9G]
property-measured: abundance fitness
value-measured: 0.027
//
seq-text: KKRTSIEVSVKGALESHFLKCPKPSAQDITNLADSLQLEKEVVRVWFCNRRQKEKR [E28D]
property-measured: abundance fitness
value-measured: -0.256
//
seq-text: KKRTSIEVSVKGALEWHFLKCPKPSAQEITNLADSLQLEKEVVRVWFCNRRQKEKR [S16W]
property-measured: abundance fitness
value-measured: -0.502
//
seq-text: KKRTSIEVSVKGALESTFLKCPKPSAQEITNLADSLQLEKEVVRVWFCNRRQKEKR [H17T]
property-measured: abundance fitness
value-measured: -0.234
//
seq-text: KKRTSIEVSVKGALESHFLKCPKPSAQEITNLADSLQLEKEVVRLWFCNRRQKEKR [V45L]
property-measured: abundance fitness
value-measured: -0.042

Below is a list of variants. For each, state its recorded abundance fitness.
1. KKGTSIEVSVKGALESHFLKCPKPSAQEITNLADSLQLEKEVVRVWFCNRRQKEKR [R3G]
2. KKRTSIEVSVKFALESHFLKCPKPSAQEITNLADSLQLEKEVVRVWFCNRRQKEKR [G12F]
3. KKRTSIEVSVKGALESHFLKCPKPSAQEITNLADSLQLEKEAVRVWFCNRRQKEKR [V42A]
4. KKRTSIEVSVKGALESHYLKCPKPSAQEITNLADSLQLEKEVVRVWFCNRRQKEKR [F18Y]
5. KKRTSIEVSVKGALESHFLKCPKPSAQEITNLADSLQLEKEVVRVWFCNRRQTEKR [K53T]

OUTPUT:
[0.04, -0.054, 0.003, 0.026, -0.067]

Below is a list of variants. For each, state its recorded abundance fitness.
1. KKRTSIEVSDKGALESHFLKCPKPSAQEITNLADSLQLEKEVVRVWFCNRRQKEKR [V10D]
2. KKRTSIEVSVKGALESHFLKCPKPSAQEITNLADSLQLEKEVVRVWFCNRRLKEKR [Q52L]
3. KKRTSIEVSVKGALESHFLKCPKPSAQEITNLADSLQLEKEVHRVWFCNRRQKEKR [V43H]
4. KKRTSIEVSVKGALESHFLKCPKPSAQEITNLADSLCLEKEVVRVWFCNRRQKEKR [Q37C]

OUTPUT:
1: 0.176; 2: -0.131; 3: -0.673; 4: -0.156

Below is a list of variants. For each, state its recorded abundance fitness.
1. KKRTSIEVYVKGALESHFLKCPKPSAQEITNLADSLQLEKEVVRVWFCNRRQKEKR [S9Y]
2. KKRTSIEVSVKGALESHFLKCPKPSAQEIYNLADSLQLEKEVVRVWFCNRRQKEKR [T30Y]
3. KKRTSIEVSVKGALESHFLKCPKPSAQEITNLADSGQLEKEVVRVWFCNRRQKEKR [L36G]
4. KKRTDIEVSVKGALESHFLKCPKPSAQEITNLADSLQLEKEVVRVWFCNRRQKEKR [S5D]
5. KKRTSIEVSVKGALESHFLKCPKPSAQEITNLADSLQLEKEVVRVWFCNVRQKEKR [R50V]

OUTPUT:
1. -0.015
2. -0.337
3. -0.929
4. -0.064
5. -0.914
